- procedureText: HepG2 cytotoxicity assay (XTT)
- Format: cell-based
- conditionSet: human, 100 µM group, XTT, normalized to DMSO, read-out: HepG2 cell viability
observedProperty: viability at 24 h, 100 µM

Q: Requested read-out: viability at 24 h, 100 µM. Entry: COc1cc(-c2cccc3[nH]ncc23)cc(C=O)c1OCC(=O)N(C)C
Result: > 80%

====

- procedureText: Metabolic stability in mouse liver microsomes
- Assay type: in vitro ADME
- conditionSet: 0.5 mg protein/ml, 2.0 uM compound, 1.0 mM NADPH, read-out: MLM t1/2
observedProperty: half-life at 2 μM (min)
Just the number please, in min, no unit attached.

Q: For the compound CN(C)C(=O)COc1ccc(-c2cccc3[nH]ncc23)cc1C=O [CDD-1976] , what half-life at 2 μM is on record?
Result: 10.2

Q: Fill in the blank: the reported half-life at 2 μM of Cc1nnc2n1-c1ccc(Cl)cc1C(c1ccccc1)=NC2 [Alprazolam, reference compound] is ____.
Result: 296

Q: Tell me the measured half-life at 2 μM of COc1cc(-c2cccc3[nH]ncc23)cc(C=O)c1OCC(=O)N(C)C [CDD-1713] , please.
Result: 8.4

====

- target: SARS-CoV-2 M^pro-His6 (Severe acute respiratory syndrome coronavirus 2, UniProt P0DTD1)
- procedureText: M^pro-His6 enzyme inhibition assay, fluorescent peptide reporter
- Type: biochemical
- conditionSet: 25 nM enzyme, 15 µM fluorescent peptide, Morrison equation; inactive = less than 90% inhibition at 25 µM; read-out: Ki against M^pro (Fig. 2; Fig. 2B M^pro-His-tag)
observedProperty: Ki (nM)
Give just the numeric value; nM need not be written.

Q: Report Ki for COc1cc(-c2cccc3[nH]ncc23)cc(C=O)c1OCC(=O)N(C)C [CDD-1713] please.
Result: 45

====

Give measured pKi for each item. Keep answers brief.
- target: SARS-CoV-2 M^pro-His6 (Severe acute respiratory syndrome coronavirus 2, UniProt P0DTD1)
- procedureText: M^pro-His6 enzyme inhibition assay, fluorescent peptide reporter
- Type: biochemical
- conditionSet: read-out: Mpro-His Ki; Table S1; 25 nM enzyme, 15 µM fluorescent peptide, Morrison equation, SE from triplicates
// scale note: pKi = -log10(conc_M); give the bare number

Q: Returns the measured pKi for the input compound. Input: COc1cc(-c2cccc3[nH]ncc23)cc(C=O)c1OCC(=O)N1CCC(Oc2cccc(C(=O)N(C)C)c2)C1 (centres unmarked)
Result: 7.70

Q: Given the entry CN(C)C(=O)COc1ccc(-c2cccc3[nH]ncc23)cc1C=O , report its measured pKi.
Result: 7.43

====

- target: SARS-CoV-2 M^pro-His6 (Severe acute respiratory syndrome coronavirus 2, UniProt P0DTD1)
- procedureText: M^pro-His6 enzyme inhibition assay, fluorescent peptide reporter
- Assay type: biochemical
- conditionSet: read-out: Ki against M^pro (Fig. 2; Fig. 2B M^pro-His-tag); 25 nM enzyme, 15 µM fluorescent peptide, Morrison equation; inactive = less than 90% inhibition at 25 µM
Would you kindly list pKi for each of these compounds?
Quick note: pKi means taking -log10 of the concentration in moles per liter.

Q: Given the entry COc1cc(-c2cccc3[nH]ncc23)cc(C=O)c1OCC(=O)N1CCC(Oc2cccc(C(=O)N(C)C)c2)C1 (centres unmarked) [CDD-1714] , report its measured pKi.
Result: 7.70

Q: Requested read-out: pKi. Entry: CN(C)C(=O)COc1ccc(-c2cccc3[nH]ncc23)cc1C=O [CDD-1976]
Result: 7.43

====

Please respond with reported half-life at 2 μM for every item in the list.
- procedureText: Metabolic stability in human liver microsomes
- Type: in vitro ADME
- conditionSet: 0.5 mg protein/ml, 2.0 uM compound, 1.0 mM NADPH, read-out: HLM t1/2
Respond with the bare value in min.

Q: For the compound shown here, Cc1nnc2n1-c1ccc(Cl)cc1C(c1ccccc1)=NC2 [Alprazolam, reference compound] , give the reported half-life at 2 μM.
Result: 832

Q: Name the recorded half-life at 2 μM for COc1cc(-c2cccc3[nH]ncc23)cc(C=O)c1OCC(=O)N(C)C .
Result: 15.3

Q: Looking for the measured half-life at 2 μM of CN(C)C(=O)COc1ccc(-c2cccc3[nH]ncc23)cc1C=O , can you help?
Result: 41.4

====

- target: SARS-CoV-2 M^pro-His6 (Severe acute respiratory syndrome coronavirus 2)
- procedureText: M^pro-His6 enzyme inhibition assay, fluorescent peptide reporter
- Assay type: biochemical
- conditionSet: Table S1; 25 nM enzyme, 15 µM fluorescent peptide, Morrison equation, SE from triplicates; read-out: Mpro-His Ki
observedProperty: Ki (nM)
Write the value in nM as a bare number.

Q: Can you look up the measured Ki of COc1cc(-c2cccc3[nH]ncc23)cc(C=O)c1OCC(=O)N(C)C for me?
Result: 45

====

- procedureText: HepG2 cytotoxicity assay (XTT)
- Assay type: cell-based
- conditionSet: human, HepG2 cells, 100 µM group, XTT, normalized to DMSO, read-out: HepG2 cell viability
observedProperty: viability at 24 h, 100 µM

Q: Return reported viability at 24 h, 100 µM; argument: CN(C)C(=O)COc1ccc(-c2cccc3[nH]ncc23)cc1C=O
Result: > 80%

====

- target: SARS-CoV-2 M^pro-His6 (Severe acute respiratory syndrome coronavirus 2)
- procedureText: M^pro-His6 enzyme inhibition assay, fluorescent peptide reporter
- Type: biochemical
observedProperty: Ki (nM)
// units = nM; emit number, no label

Q: What value of measured Ki is listed for COc1cc(-c2cccc3[nH]ncc23)cc(C=O)c1OCC(=O)N1CCC(Oc2cccc(C(=O)N(C)C)c2)C1 (centres unmarked) ?
Result: 20

Q: // returns reported Ki for input CN(C)C(=O)COc1ccc(-c2cccc3[nH]ncc23)cc1C=O
Result: 37

====

- target: renin (Homo sapiens)
- Sequence (P00797 67-406): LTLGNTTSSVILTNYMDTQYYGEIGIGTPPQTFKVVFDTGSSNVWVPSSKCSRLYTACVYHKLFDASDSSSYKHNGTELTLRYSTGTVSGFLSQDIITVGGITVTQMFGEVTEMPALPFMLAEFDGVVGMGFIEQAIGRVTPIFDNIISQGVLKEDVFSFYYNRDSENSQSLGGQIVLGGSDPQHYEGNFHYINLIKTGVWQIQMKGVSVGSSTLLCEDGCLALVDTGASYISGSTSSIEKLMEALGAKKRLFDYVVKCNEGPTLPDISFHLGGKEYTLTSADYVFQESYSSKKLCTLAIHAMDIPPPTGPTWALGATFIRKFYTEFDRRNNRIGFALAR
observedProperty: Ki (µM)
Answer format: numeric, µM implied, no suffix.

Q: Give the measured Ki of COc1cc(-c2cccc3[nH]ncc23)cc(C=O)c1OCC(=O)N(C)C .
Result: 53
